Where do the numbers come from? From ChEMBL document CHEMBL3232716.

system: Acinetobacter baumannii; experiment: Antibacterial activity against multidrug-resistant Acinetobacter baumannii clinical isolate E2-1228625 after 18 hrs by microdilution broth method; format: functional; conditions: clinical isolate E2-1228625, 18 h
Square brackets hold non-standard residues; d marks the D form. Peptide text beside a SMILES is read from it. hArg = N=C(N)NCCCC[C@H](N)C(=O)O; Nspe = C[C@H](NCC(=O)O)c1ccccc1; Nphe = O=C(O)CNCc1ccccc1
Here, each record is paired with measured MIC data.

compound: CC(=O)N[C@@H](CCCCN)C(=O)N(CC(=O)N[C@@H](CCCCNC(=N)N)C(=O)N(CC(=O)N[C@@H](CCCCN)C(=O)N(CC(=O)N[C@@H](CCCCNC(=N)N)C(=O)N(CC(=O)N[C@@H](CCCCN)C(=O)N(CC(=O)N[C@@H](CCCCNC(=N)N)C(=O)N(CC(=O)N[C@@H](CCCCN)C(=O)N(CC(N)=O)Cc1ccccc1)Cc1ccccc1)Cc1ccccc1)Cc1ccccc1)Cc1ccccc1)Cc1ccccc1)Cc1ccccc1 (Ac-K[Nphe][hArg][Nphe]K[Nphe][hArg][Nphe]K[Nphe][hArg][Nphe]K[Nphe]-NH2)
qualifier.sign: =
MIC / µM: 4
//
compound: CC(=O)N[C@@H](CCCCN)C(=O)N(CCC(=O)N[C@@H](CCCCNC(=N)N)C(=O)N(CCC(=O)N[C@@H](CCCCN)C(=O)N(CCC(=O)N[C@@H](CCCCNC(=N)N)C(=O)N(CCC(=O)N[C@@H](CCCCN)C(=O)N(CCC(=O)N[C@@H](CCCCNC(=N)N)C(=O)N(CCC(=O)N[C@@H](CCCCN)C(=O)N(CCC(N)=O)[C@@H](C)c1ccccc1)[C@@H](C)c1ccccc1)[C@@H](C)c1ccccc1)[C@@H](C)c1ccccc1)[C@@H](C)c1ccccc1)[C@@H](C)c1ccccc1)[C@@H](C)c1ccccc1
qualifier.sign: =
MIC / µM: 2
//
compound: CN[C@H](CC(C)C)C(=O)N[C@H]1C(=O)N[C@@H](CC(N)=O)C(=O)N[C@H]2C(=O)N[C@H]3C(=O)N[C@H](C(=O)N[C@H](C(=O)O)c4cc(O)cc(O)c4-c4cc3ccc4O)[C@H](O)c3ccc(c(Cl)c3)Oc3cc2cc(c3O[C@@H]2O[C@H](CO)[C@@H](O)[C@H](O)[C@H]2O[C@H]2C[C@](C)(N)[C@H](O)[C@H](C)O2)Oc2ccc(cc2Cl)[C@H]1O [VANCOMYCIN]
qualifier.sign: >
MIC / µM: 128
//
compound: CC(=O)N[C@@H](CCCCN)C(=O)N(CCC(=O)N[C@@H](CCCCNC(=N)N)C(=O)N(CCC(=O)N[C@@H](CCCCN)C(=O)N(CCC(=O)N[C@@H](CCCCNC(=N)N)C(=O)N(CCC(=O)N[C@@H](CCCCN)C(=O)N(CCC(=O)N[C@@H](CCCCNC(=N)N)C(=O)N(CCC(=O)N[C@@H](CCCCN)C(=O)N(CCC(N)=O)Cc1ccccc1)Cc1ccccc1)Cc1ccccc1)Cc1ccccc1)Cc1ccccc1)Cc1ccccc1)Cc1ccccc1
qualifier.sign: =
MIC / µM: 4
//
compound: CC(=O)N[C@@H](CCCCNC(=N)N)C(=O)N(CC(=O)N[C@@H](CCCCN)C(=O)N(CC(=O)N[C@@H](CCCCNC(=N)N)C(=O)N(CC(=O)N[C@@H](CCCCN)C(=O)N(CC(=O)N[C@@H](CCCCNC(=N)N)C(=O)N(CC(N)=O)[C@@H](C)c1ccccc1)[C@@H](C)c1ccccc1)[C@@H](C)c1ccccc1)[C@@H](C)c1ccccc1)[C@@H](C)c1ccccc1 (Ac-[hArg][Nspe]K[Nspe][hArg][Nspe]K[Nspe][hArg][Nspe]-NH2)
qualifier.sign: =
MIC / µM: 16
//
compound: CC(=O)N[C@@H](CCCCNC(=N)N)C(=O)N(CCC(=O)N[C@@H](CCCCN)C(=O)N(CCC(=O)N[C@@H](CCCCNC(=N)N)C(=O)N(CCC(=O)N[C@@H](CCCCN)C(=O)N(CCC(=O)N[C@@H](CCCCNC(=N)N)C(=O)N(CCC(N)=O)Cc1ccccc1)Cc1ccccc1)Cc1ccccc1)Cc1ccccc1)Cc1ccccc1
qualifier.sign: =
MIC / µM: 128
//
compound: CC(=O)N[C@@H](CCCCN)C(=O)N(CCC(=O)N[C@@H](CCCCNC(=N)N)C(=O)N(CCC(=O)N[C@@H](CCCCN)C(=O)N(CCC(=O)N[C@@H](CCCCNC(=N)N)C(=O)N(CCC(=O)N[C@@H](CCCCN)C(=O)N(CCC(=O)N[C@@H](CCCCNC(=N)N)C(=O)N(CCC(N)=O)[C@@H](C)c1ccccc1)[C@@H](C)c1ccccc1)[C@@H](C)c1ccccc1)[C@@H](C)c1ccccc1)[C@@H](C)c1ccccc1)[C@@H](C)c1ccccc1
qualifier.sign: =
MIC / µM: 8
//
compound: CC(=O)N[C@@H](CCCCNC(=N)N)C(=O)N(CC(=O)N[C@@H](CCCCN)C(=O)N(CC(=O)N[C@@H](CCCCNC(=N)N)C(=O)N(CC(=O)N[C@@H](CCCCN)C(=O)N(CC(=O)N[C@@H](CCCCNC(=N)N)C(=O)N(CC(N)=O)Cc1ccccc1)Cc1ccccc1)Cc1ccccc1)Cc1ccccc1)Cc1ccccc1 (Ac-[hArg][Nphe]K[Nphe][hArg][Nphe]K[Nphe][hArg][Nphe]-NH2)
qualifier.sign: >
MIC / µM: 128
//
compound: CC(=O)N[C@@H](CCCCNC(=N)N)C(=O)N(CCC(=O)N[C@@H](CCCCN)C(=O)N(CCC(=O)N[C@@H](CCCCNC(=N)N)C(=O)N(CCC(=O)N[C@@H](CCCCN)C(=O)N(CCC(=O)N[C@@H](CCCCNC(=N)N)C(=O)N(CCC(N)=O)[C@@H](C)c1ccccc1)[C@@H](C)c1ccccc1)[C@@H](C)c1ccccc1)[C@@H](C)c1ccccc1)[C@@H](C)c1ccccc1
qualifier.sign: =
MIC / µM: 64
//
compound: CO/N=C(\C(=O)N[C@@H]1C(=O)N2C(C(=O)O)=C(COC(C)=O)CS[C@H]12)c1csc(N)n1 [CEFOTAXIME]
qualifier.sign: >
MIC / µM: 128
//
compound: CC(=O)N[C@@H](CCCCN)C(=O)N(CCC(=O)N[C@@H](CCCCNC(=N)N)C(=O)N(CCC(=O)N[C@@H](CCCCN)C(=O)N(CCC(=O)N[C@@H](CCCCNC(=N)N)C(=O)N(CCC(=O)N[C@@H](CCCCN)C(=O)N(CCC(=O)N[C@@H](CCCCNC(=N)N)C(=O)N(CCC(N)=O)Cc1ccccc1)Cc1ccccc1)Cc1ccccc1)Cc1ccccc1)Cc1ccccc1)Cc1ccccc1
qualifier.sign: =
MIC / µM: 16
//
compound: CC(=O)N[C@@H](CCCCN)C(=O)N(CC(=O)N[C@@H](CCCCNC(=N)N)C(=O)N(CC(=O)N[C@@H](CCCCN)C(=O)N(CC(=O)N[C@@H](CCCCNC(=N)N)C(=O)N(CC(=O)N[C@@H](CCCCN)C(=O)N(CC(=O)N[C@@H](CCCCNC(=N)N)C(=O)N(CC(N)=O)Cc1ccccc1)Cc1ccccc1)Cc1ccccc1)Cc1ccccc1)Cc1ccccc1)Cc1ccccc1 (Ac-K[Nphe][hArg][Nphe]K[Nphe][hArg][Nphe]K[Nphe][hArg][Nphe]-NH2)
qualifier.sign: =
MIC / µM: 64
